Test system: HCV 1b_Huh-Luc/Neo-ET cell line persistently expressing a bicistronic genotype 1b replicon in Huh 7 cells
Test: HCV replicon assay (luciferase readout)
Type: cell-based
Conditions: Hepatitis C virus, Huh-7, 72 h, read-out: Inhibition of HCV genotype 1b
pEC50: −log10 of the molar value.

compound	pEC50
COC(=O)N[C@H](C(=O)N1CCC[C@H]1c1ncc(-c2ccc(C#Cc3ccc(-c4cnc([C@@H]5CCCN5C(=O)[C@@H](c5ccccc5)N5CCN(CCO)CC5)[nH]4)cc3)cc2)[nH]1)C(C)C [Compound 958]	> 9.00
COC(=O)N[C@@H](C(=O)N1CCC[C@H]1c1ncc(-c2ccc(C#Cc3ccc(-c4cnc([C@@H]5CCCN5C(=O)[C@H](NC(=O)N5CC[C@H](O)C5)c5ccccc5)[nH]4)cc3)cc2)[nH]1)c1ccccc1 [Compound 269]	> 9.00
CCN(CC)[C@@H](C(=O)N1CCC[C@H]1c1ncc(-c2ccc(-c3ccc(C#Cc4cnc([C@@H]5CCCN5C(=O)[C@H](NC(=O)OC)c5ccccc5)[nH]4)cc3)cc2)[nH]1)c1ccccc1 [Compound 751]	> 9.00
CC(C)[C@@H](NC(=O)C1CC1)C(=O)N1CCC[C@H]1c1ncc(-c2ccc(C#Cc3ccc(-c4cnc([C@@H]5CCCN5C(=O)[C@H](NC(=O)C5CC5)C(C)C)[nH]4)cc3)cc2)[nH]1 [Compound 155]	8.00 to 9.00
COC(=O)N[C@H](C(=O)N1CCC[C@H]1c1nc(-c2cnc3cc(C#Cc4ccc(-c5cnc([C@@H]6CCCN6C(=O)[C@@H](NC(=O)OC)c6ccccc6)[nH]5)cc4)ccc3c2)c[nH]1)c1ccccc1 [Compound 1089]	8.00 to 9.00
COC(=O)N[C@H](C(=O)N1CCC[C@H]1c1ncc(-c2ccc(C#Cc3ccc4nc([C@@H]5CCCN5C(=O)[C@@H](NC(=O)OC)C5CCCC5)[nH]c4c3)cc2)[nH]1)C1CCCC1 [Compound 1025]	> 9.00
O=C(N[C@@H](C(=O)N1CCC[C@H]1c1ncc(C#Cc2ccc(C#Cc3cnc([C@@H]4CCCN4C(=O)[C@H](NC(=O)C4CC4)c4ccccc4)[nH]3)cc2)[nH]1)c1ccccc1)C1CC1 [Compound 303]	> 9.00
CC(C)[C@@H](NC(=O)N1CCCC1)C(=O)N1CCC[C@H]1c1ncc(-c2ccc(C#Cc3ccc(-c4cnc([C@@H]5CCCN5C(=O)[C@H](NC(=O)N5CCCC5)C(C)C)[nH]4)cc3)cc2)[nH]1 [Compound 293]	< 6.00
COC(=O)N[C@H](C(=O)N[C@@H](C)c1ncc(-c2ccc(C#Cc3ccc4nc([C@@H]5CCCN5C(=O)[C@@H](NC(=O)OC)C(C)C)[nH]c4c3)cc2)[nH]1)C(C)C [Compound 869]	> 9.00
C(#Cc1ccc2nc([C@@H]3CCCN3)[nH]c2c1)c1ccc(-c2cnc([C@@H]3CCCN3)[nH]2)cc1 [Compound 1035]	6.00 to 8.00
CC(C)[C@H](NC(=O)N1CCCC1)C(=O)N1CCC[C@H]1c1ncc(-c2ccc(C#Cc3ccc(-c4cnc([C@@H]5CCCN5C(=O)[C@@H](NC(=O)N5CCCC5)C(C)C)[nH]4)cc3)cc2)[nH]1 [Compound 288]	< 6.00
COC(=O)N[C@@H](C(=O)N[C@@H](C)c1ncc(-c2ccc(C#Cc3ccc(-c4cnc([C@H](C)NC(=O)[C@H](NC(=O)OC)C(C)C)[nH]4)cc3)cc2)[nH]1)C(C)C [Compound 950]	> 9.00
COC(=O)N[C@H](C(=O)N1CCC[C@H]1c1ncc(-c2ccc(C#Cc3ccc(-c4cnc([C@@H]5CCCN5C(=O)[C@@H](C(C)C)N(C)C)[nH]4)cc3)cc2)[nH]1)C(C)C [Compound 954]	8.00 to 9.00
CC(=O)N[C@@H](C(=O)N1CCC[C@H]1c1ncc(C#Cc2ccc(C#Cc3cnc([C@@H]4CCCN4C(=O)[C@H](NC(C)=O)c4ccccc4)[nH]3)cc2)[nH]1)c1ccccc1 [Compound 306]	> 9.00
COC(=O)N[C@@H](C(=O)N1CCC[C@H]1c1nc2ccc(C#Cc3ccc4nc([C@@H]5CCCN5C(=O)[C@H](NC(=O)OC)C(C)C)[nH]c4c3)cc2[nH]1)C(C)C [Compound 853]	> 9.00
CC(C)[C@H](NC(=O)N1CC[C@H](O)C1)C(=O)N1CCC[C@H]1c1ncc(-c2ccc(C#Cc3ccc(-c4cnc([C@@H]5CCCN5C(=O)[C@@H](NC(=O)N5CC[C@H](O)C5)C(C)C)[nH]4)cc3)cc2)[nH]1 [Compound 988]	6.00 to 8.00
CC(C)[C@H](NC(=O)C1CC1)C(=O)N1CCC[C@H]1c1ncc(-c2ccc(C#Cc3ccc(-c4cnc([C@@H]5CCCN5C(=O)[C@@H](NC(=O)C5CC5)C(C)C)[nH]4)cc3)cc2)[nH]1 [Compound 170]	8.00 to 9.00
COC(=O)N[C@@H](C(=O)N1CCC[C@H]1c1ncc(-c2ccc(C#Cc3ccc(-c4cnc([C@@H]5CCCN5C(=O)[C@H](NC(=O)[C@H]5CCCN5C)c5ccccc5)[nH]4)cc3)cc2)[nH]1)c1ccccc1 [Compound 204]	> 9.00
COC(=O)N[C@@H](C(=O)N1CCC[C@H]1c1ncc(C#Cc2ccc(-c3ccc(-c4cnc([C@@H]5CCCN5C(=O)[C@@H](c5ccccc5)N(C)C)[nH]4)cc3)cc2)[nH]1)c1ccccc1 [Compound 755]	> 9.00
